# credit: the supplement of paper PMC10307832

# System: NCI-H1651
# Assay Details: relative viability (nuclei count vs DMSO), 5 days (fraction); higher = more cells survive
# Recorded Conditions: first compound 0.8 µM
Mark each entry Yes if its relative viability sits below 0.9, and No for all others.

Prompt line: Answer whether the molecule Cc1cnc(-c2cnc(NCCNc3ccc(C#N)cn3)nc2-c2ccc(Cl)cc2Cl)[nH]1 + Nc1ncn([C@H]2C[C@H](O)[C@@H](CO)O2)c(=O)n1 [Decitabine] (partner 2 µM) has relative viability strictly less than 0.9
Response line: Yes

Prompt line: Problem: For the molecule Cc1cnc(-c2cnc(NCCNc3ccc(C#N)cn3)nc2-c2ccc(Cl)cc2Cl)[nH]1 + CC(C)C[C@H](NC(=O)[C@H](Cc1ccccc1)NC(=O)c1cnccn1)B(O)O [Bortezomib] (partner 0.002 µM) , is relative viability under 0.9?
Response line: No

Prompt line: # strict comparison: is reported relative viability < 0.9? input = Cc1cnc(-c2cnc(NCCNc3ccc(C#N)cn3)nc2-c2ccc(Cl)cc2Cl)[nH]1 + Cc1nc(NC(=O)N2CCC[C@H]2C(N)=O)sc1-c1ccnc(C(C)(C)C(F)(F)F)c1 [Alpelisib] (partner 2 µM)
Response line: No

Prompt line: Just wondering, is relative viability of O=c1[nH]c2ccccc2n1C1CCN(CCCC(c2ccc(F)cc2)c2ccc(F)cc2)CC1 [Pimozide] + O=C(CCCCCCC(=O)Nc1ccccc1)NO [Vorinostat] (partner 1 µM) below 0.9?
Response line: Yes

Prompt line: Quick check: relative viability of Cc1cnc(-c2cnc(NCCNc3ccc(C#N)cn3)nc2-c2ccc(Cl)cc2Cl)[nH]1 + CS(=O)(=O)N1CCN(Cc2cc3nc(-c4cccc5[nH]ncc45)nc(N4CCOCC4)c3s2)CC1 [Pictilisib] (partner 1 µM) under 0.9?
Response line: Yes

* * *

# Test system: NCI-H1437
# Assay Details: relative viability (nuclei count vs DMSO), 5 days (fraction); higher = more cells survive
# Recorded Conditions: first compound 0.08 µM
Kindly supply the reported relative viability values for the records listed here.
Number, no unit, nothing else.

Prompt line: What value of relative viability has been recorded for this entry: Cc1cnc(-c2cnc(NCCNc3ccc(C#N)cn3)nc2-c2ccc(Cl)cc2Cl)[nH]1 + N=C(N)NC(=N)NCCc1ccccc1 [Phenformin] (partner 250 µM)
Response line: 0.304

Prompt line: I have this molecule here, Cc1cnc(-c2cnc(NCCNc3ccc(C#N)cn3)nc2-c2ccc(Cl)cc2Cl)[nH]1 + C[C@@H](Oc1cc(-c2cnn(C3CCNCC3)c2)cnc1N)c1c(Cl)ccc(F)c1Cl [Crizotinib] (partner 1 µM) , and I need its recorded relative viability.
Response line: 0.912

Prompt line: Look up relative viability for this molecule: O=c1[nH]c2ccccc2n1C1CCN(CCCC(c2ccc(F)cc2)c2ccc(F)cc2)CC1 [Pimozide] + Cc1nc(NC(=O)N2CCC[C@H]2C(N)=O)sc1-c1ccnc(C(C)(C)C(F)(F)F)c1 [Alpelisib] (partner 2 µM)
Response line: 1.04

Prompt line: What value of measured relative viability is listed for O=c1[nH]c2ccccc2n1C1CCN(CCCC(c2ccc(F)cc2)c2ccc(F)cc2)CC1 [Pimozide] + Cc1nc(Nc2ncc(C(=O)Nc3c(C)cccc3Cl)s2)cc(N2CCN(CCO)CC2)n1 [Dasatinib] (partner 0.075 µM) ?
Response line: 0.483

Prompt line: # lookup: relative viability of O=c1[nH]c2ccccc2n1C1CCN(CCCC(c2ccc(F)cc2)c2ccc(F)cc2)CC1 [Pimozide] + COc1cc2c(Oc3ccc(NC(=O)C4(C(=O)Nc5ccc(F)cc5)CC4)cc3F)ccnc2cc1OCCCN1CCOCC1 [Foretinib] (partner 0.25 µM)
Response line: 1.27

Prompt line: Requested field: relative viability. Item: Cc1cnc(-c2cnc(NCCNc3ccc(C#N)cn3)nc2-c2ccc(Cl)cc2Cl)[nH]1 + C[C@]1(O)C[C@@H](c2nc(-c3ccc4ccc(-c5ccccc5)nc4c3)c3c(N)nccn32)C1 [Linsitinib] (partner 1 µM)
Response line: 1.01

Prompt line: Endpoint output: relative viability of Cc1cnc(-c2cnc(NCCNc3ccc(C#N)cn3)nc2-c2ccc(Cl)cc2Cl)[nH]1 + O=C(c1cc(Cc2n[nH]c(=O)c3ccccc23)ccc1F)N1CCN(C(=O)C2CC2)CC1 [Olaparib] (partner 8 µM) . Value?
Response line: 0.605

Prompt line: Any idea what its relative viability is? The molecule is O=c1[nH]c2ccccc2n1C1CCN(CCCC(c2ccc(F)cc2)c2ccc(F)cc2)CC1 [Pimozide] + C[C@@H](Oc1cc(-c2cnn(C3CCNCC3)c2)cnc1N)c1c(Cl)ccc(F)c1Cl [Crizotinib] (partner 1 µM)
Response line: 0.949

* * *

# System: EMC-BAC-2
# Assay Details: relative viability (nuclei count vs DMSO), 5 days (fraction); higher = more cells survive
# Recorded Conditions: first compound 0.0002 µM
Measured Attribute: relative viability
// print number alone

Prompt line: Recall the recorded relative viability for CC(=O)O[C@@]12CO[C@@H]1C[C@H](O)[C@@]1(C)C(=O)[C@H](O)C3=C(C)[C@@H](OC(=O)[C@H](O)[C@@H](NC(=O)OC(C)(C)C)c4ccccc4)C[C@@](O)([C@@H](OC(=O)c4ccccc4)[C@H]21)C3(C)C [Docetaxel] + C[C@]1(O)C[C@@H](c2nc(-c3ccc4ccc(-c5ccccc5)nc4c3)c3c(N)nccn32)C1 [Linsitinib] (partner 1 µM) with EMC-BAC-2 and state it.
Response line: 0.799

* * *

# Tested on: A-427
# Assay Details: relative viability (nuclei count vs DMSO), 5 days (fraction); higher = more cells survive
# Recorded Conditions: first compound 0.04 µM
Satisfied if relative viability is below 0.9. Not satisfied if not; exact matches included in Not satisfied.

Prompt line: Hello, is relative viability of the following compound strictly smaller than 0.9? Cc1sc2c(c1C)C(c1ccc(Cl)cc1)=N[C@@H](CC(=O)OC(C)(C)C)c1nnc(C)n1-2 [JQ1] + NC(=O)Nc1cc(-c2cccc(F)c2)sc1C(=O)N[C@H]1CCCNC1 [AZD7762] (partner 0.2 µM)
Response line: Satisfied

Prompt line: Strictly below 0.9: is that where relative viability of Cc1sc2c(c1C)C(c1ccc(Cl)cc1)=N[C@@H](CC(=O)OC(C)(C)C)c1nnc(C)n1-2 [JQ1] + O=C(CCCCCCC(=O)Nc1ccccc1)NO [Vorinostat] (partner 1 µM) sits?
Response line: Satisfied

Prompt line: I wonder whether Cc1sc2c(c1C)C(c1ccc(Cl)cc1)=N[C@@H](CC(=O)OC(C)(C)C)c1nnc(C)n1-2 [JQ1] + N=C(N)NC(=N)NCCc1ccccc1 [Phenformin] (partner 250 µM) has relative viability below 0.9. Can you tell?
Response line: Satisfied

Prompt line: Below 0.9 on relative viability? Entry Cc1sc2c(c1C)C(c1ccc(Cl)cc1)=N[C@@H](CC(=O)OC(C)(C)C)c1nnc(C)n1-2 [JQ1] + CS(=O)(=O)N1CCN(Cc2cc3nc(-c4cccc5[nH]ncc45)nc(N4CCOCC4)c3s2)CC1 [Pictilisib] (partner 1 µM)
Response line: Satisfied

Prompt line: Below 0.9 on relative viability? Entry Cc1sc2c(c1C)C(c1ccc(Cl)cc1)=N[C@@H](CC(=O)OC(C)(C)C)c1nnc(C)n1-2 [JQ1] + C[C@@H](Oc1cc(-c2cnn(C3CCNCC3)c2)cnc1N)c1c(Cl)ccc(F)c1Cl [Crizotinib] (partner 1 µM)
Response line: Not satisfied

Prompt line: Given the entry Cc1sc2c(c1C)C(c1ccc(Cl)cc1)=N[C@@H](CC(=O)OC(C)(C)C)c1nnc(C)n1-2 [JQ1] + Cc1cc(Nc2cc(N3CCN(C)CC3)nc(Sc3ccc(NC(=O)C4CC4)cc3)n2)n[nH]1 [Tozasertib] (partner 0.1 µM) , would its reported relative viability be below 0.9?
Response line: Satisfied

* * *

Provide the recorded relative viability for the entries that follow.
# System: NCI-H1651
# Assay Details: relative viability (nuclei count vs DMSO), 5 days (fraction); higher = more cells survive
# Recorded Conditions: first compound 0.253 µM
Respond with the number and no other words.

Prompt line: So what does the record say about relative viability for Cc1cnc(-c2cnc(NCCNc3ccc(C#N)cn3)nc2-c2ccc(Cl)cc2Cl)[nH]1 + O=C(c1cc(Cc2n[nH]c(=O)c3ccccc23)ccc1F)N1CCN(C(=O)C2CC2)CC1 [Olaparib] (partner 8 µM) ?
Response line: 0.192

Prompt line: # input compound: O=c1[nH]c2ccccc2n1C1CCN(CCCC(c2ccc(F)cc2)c2ccc(F)cc2)CC1 [Pimozide] + COc1cccc2cc(-c3nc([C@H]4CC[C@H](C(=O)O)CC4)n4ncnc(N)c34)[nH]c12 [OSI-027] (partner 0.5 µM) ; wanted: its relative viability
Response line: 0.7

Prompt line: Need relative viability, item Cc1cnc(-c2cnc(NCCNc3ccc(C#N)cn3)nc2-c2ccc(Cl)cc2Cl)[nH]1 + CC1(C)CCC(c2ccc(Cl)cc2)=C(CN2CCN(c3ccc(C(=O)NS(=O)(=O)c4ccc(N[C@H](CCN5CCOCC5)CSc5ccccc5)c(S(=O)(=O)C(F)(F)F)c4)cc3)CC2)C1 [Navitoclax] (partner 0.5 µM)
Response line: 0.874

Prompt line: Look up relative viability: O=c1[nH]c2ccccc2n1C1CCN(CCCC(c2ccc(F)cc2)c2ccc(F)cc2)CC1 [Pimozide] + C[C@]1(O)C[C@@H](c2nc(-c3ccc4ccc(-c5ccccc5)nc4c3)c3c(N)nccn32)C1 [Linsitinib] (partner 1 µM)
Response line: 1
